Experiment: stability in mouse plasma
Format: in vitro ADME
Conditions: 4°C, LC-MS/MS, representative of three experiments, read-out: % S38151 remaining
Where a SMILES comes first, the peptide text is derived from it.

compound	remaining at 16 h, 40 μM
CSCC[C@@H]1NC(=O)[C@@H](NC(=O)c2ccc(NC(=N)N)cc2)CSSC[C@@H](C(=O)N[C@@H](Cc2c[nH]c3ccccc23)C(=O)O)NC(=O)[C@@H]2CCCN2C(=O)[C@H](CCCNC(=N)N)NC(=O)[C@H](Cc2ccc(O)cc2)NC(=O)[C@H](C(C)C)NC(=O)[C@H](CCCNC(=N)N)NC(=O)[C@H](CC(C)C)NC1=O [S38151] (HELM PEPTIDE1{[N=C(N)Nc1ccc(C(=O)[*:2])cc1].C.M.L.R.V.Y.R.P.C.W}$PEPTIDE1,PEPTIDE1,2:R3-10:R3$$$V2.0; C-terminus assumed)	59%

====

Assay: stability in TRIS buffer pH 7.4
Format: physicochemical
Conditions: pH 7.4, Tris buffer pH 7.4, 40 μM, 4°C, LC-MS/MS, representative of three experiments, read-out: % S38151 remaining
Where a SMILES comes first, the peptide text is derived from it.
outcome measure: remaining at 16 h, 40 μM (%)

compound	val
CSCC[C@@H]1NC(=O)[C@@H](NC(=O)c2ccc(NC(=N)N)cc2)CSSC[C@@H](C(=O)N[C@@H](Cc2c[nH]c3ccccc23)C(=O)O)NC(=O)[C@@H]2CCCN2C(=O)[C@H](CCCNC(=N)N)NC(=O)[C@H](Cc2ccc(O)cc2)NC(=O)[C@H](C(C)C)NC(=O)[C@H](CCCNC(=N)N)NC(=O)[C@H](CC(C)C)NC1=O [S38151] (HELM PEPTIDE1{[N=C(N)Nc1ccc(C(=O)[*:2])cc1].C.M.L.R.V.Y.R.P.C.W}$PEPTIDE1,PEPTIDE1,2:R3-10:R3$$$V2.0; C-terminus assumed)	79
